Could you please report measured IC50 for the items listed next?
tested-on: human Nav1.7 (Homo sapiens (Human), UniProt Q15858)
Sequence (Q15858 whole entry): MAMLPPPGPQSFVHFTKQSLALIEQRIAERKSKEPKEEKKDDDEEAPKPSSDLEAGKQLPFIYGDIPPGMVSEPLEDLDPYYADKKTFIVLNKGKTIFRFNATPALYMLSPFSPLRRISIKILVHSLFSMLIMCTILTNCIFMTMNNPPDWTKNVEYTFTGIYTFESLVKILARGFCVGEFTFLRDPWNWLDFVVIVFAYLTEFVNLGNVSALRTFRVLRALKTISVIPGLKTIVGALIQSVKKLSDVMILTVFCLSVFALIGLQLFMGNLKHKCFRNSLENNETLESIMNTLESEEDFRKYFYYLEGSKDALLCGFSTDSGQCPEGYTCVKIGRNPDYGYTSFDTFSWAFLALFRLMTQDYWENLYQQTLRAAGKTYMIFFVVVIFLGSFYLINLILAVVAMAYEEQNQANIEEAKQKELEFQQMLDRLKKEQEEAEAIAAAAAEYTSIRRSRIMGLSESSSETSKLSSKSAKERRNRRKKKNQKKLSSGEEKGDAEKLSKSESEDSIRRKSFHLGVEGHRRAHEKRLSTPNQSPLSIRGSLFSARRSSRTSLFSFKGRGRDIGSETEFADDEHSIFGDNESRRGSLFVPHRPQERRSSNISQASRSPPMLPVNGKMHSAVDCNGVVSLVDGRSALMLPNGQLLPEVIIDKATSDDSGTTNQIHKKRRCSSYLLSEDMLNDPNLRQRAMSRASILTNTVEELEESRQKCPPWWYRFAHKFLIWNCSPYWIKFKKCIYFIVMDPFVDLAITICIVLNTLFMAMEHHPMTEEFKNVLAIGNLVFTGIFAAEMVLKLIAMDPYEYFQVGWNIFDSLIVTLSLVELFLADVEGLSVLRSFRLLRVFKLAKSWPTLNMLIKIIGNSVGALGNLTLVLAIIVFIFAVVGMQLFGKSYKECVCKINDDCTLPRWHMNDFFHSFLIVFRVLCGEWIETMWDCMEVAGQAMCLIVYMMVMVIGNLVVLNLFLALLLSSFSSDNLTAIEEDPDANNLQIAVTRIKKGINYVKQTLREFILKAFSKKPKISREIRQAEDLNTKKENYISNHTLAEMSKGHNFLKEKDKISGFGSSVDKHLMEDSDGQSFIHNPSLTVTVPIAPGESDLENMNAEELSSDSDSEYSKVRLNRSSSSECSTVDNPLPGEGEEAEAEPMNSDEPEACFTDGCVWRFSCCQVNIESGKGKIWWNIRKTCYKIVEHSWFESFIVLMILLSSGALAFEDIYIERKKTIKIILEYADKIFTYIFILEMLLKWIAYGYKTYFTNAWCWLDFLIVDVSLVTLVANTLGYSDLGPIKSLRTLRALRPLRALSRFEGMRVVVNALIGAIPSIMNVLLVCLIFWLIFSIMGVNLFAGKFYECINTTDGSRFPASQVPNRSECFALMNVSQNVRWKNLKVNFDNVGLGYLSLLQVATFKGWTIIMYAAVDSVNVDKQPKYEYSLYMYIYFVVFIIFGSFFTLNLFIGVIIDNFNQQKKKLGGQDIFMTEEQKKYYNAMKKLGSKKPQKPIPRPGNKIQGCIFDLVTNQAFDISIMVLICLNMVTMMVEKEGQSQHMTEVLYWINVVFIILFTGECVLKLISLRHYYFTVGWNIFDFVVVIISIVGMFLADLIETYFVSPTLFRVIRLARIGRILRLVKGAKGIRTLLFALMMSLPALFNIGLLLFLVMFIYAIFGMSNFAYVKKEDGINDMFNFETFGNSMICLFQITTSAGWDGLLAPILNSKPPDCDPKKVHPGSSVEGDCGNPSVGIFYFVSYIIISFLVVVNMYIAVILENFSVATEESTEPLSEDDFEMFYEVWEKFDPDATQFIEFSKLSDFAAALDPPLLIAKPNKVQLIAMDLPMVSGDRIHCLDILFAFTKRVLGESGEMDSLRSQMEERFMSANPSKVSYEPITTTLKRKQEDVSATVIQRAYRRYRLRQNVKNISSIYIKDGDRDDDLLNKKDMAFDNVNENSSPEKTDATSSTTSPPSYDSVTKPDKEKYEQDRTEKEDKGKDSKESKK
assay-procedure: FRET-based membrane potential assay, recombinant human sodium channel Nav1.7
test-conditions: HEK293 cells stably expressing recombinant human Nav1.7; depolarization with veratridine (EC80) + scorpion venom
Could you kindly put the unit after your number?

Prompt: Provide one value: measured IC50 of CC(C)[C@H](NC(=O)CN1CCN(c2cccc3c2cnn3-c2ccccc2F)C1=O)C(=O)NC(C)(C)C [Example 346]
Response: 2040 nM

Prompt: // fetch IC50 given entry O=C(C1CCC1)C(O)N1CCN(c2cccc3c2cnn3-c2ccccc2F)C1=O (stereo not shown) [Example 166]
Response: 435 nM

Prompt: Supply measured IC50 of CC(C)[C@@H]1CCCN1C(=O)CN1CCN(c2cccc3c2cnn3-c2ccccc2F)C1=O [Example 125] in your reply.
Response: 1410 nM

Prompt: Output measured IC50 for this item: O=C(Nc1ccccc1)[C@H]1CCCN1C(=O)CN1CCN(c2cccc3c2cnn3-c2ccccc2F)C1=O [Example 120]
Response: 4180 nM

Prompt: Read off the recorded IC50 for O=C1N(CC(=O)N2C[C@@H]3C[C@H]2CO3)CCN1c1cccc2c1cnn2-c1ccccc1F [Example 16]
Response: 738 nM

Prompt: State its IC50: O=C1N(CCc2ccccc2)CCN1c1cccc2c1cnn2-c1ccccc1F [Example 193]
Response: 998 nM

Prompt: Identify measured IC50 corresponding to CCOC(=O)/C=C/N1CCN(c2cccc3c2cnn3-c2ccccc2F)C1=O [Example 288]
Response: 5300 nM

Prompt: Give the value of IC50 reported for the following: CC[C@@H](CO)N1CCN(c2cccc3c2cnn3-c2ccccc2F)C1=O [Example 159]
Response: 3590 nM

Prompt: Return the recorded IC50 value; entry: CS(=O)(=O)N1CC(N2CCN(c3cccc4c3cnn4-c3ccccc3F)C2=O)C1 [Example 271]
Response: 3450 nM

Prompt: Name the recorded IC50 of the compound listed here: CCOc1nnc(CN2CCN(c3cccc4c3cnn4-c3ccccc3F)C2=O)s1 [Example 47]
Response: 1490 nM

Prompt: Input Cc1scnc1CN1CCN(c2cccc3c2cnn3-c2ccccc2F)C1=O [Example 245] , output reported IC50.
Response: 207 nM

Prompt: // fetch IC50 given entry C[C@@H]1CN(c2cccc3c2cnn3-c2ccccc2F)C(=O)N1Cc1ncco1 [Example 247]
Response: 981 nM

Prompt: Answer with reported IC50 of O=C1N(CC(=O)N2CCCC2CN2CCOCC2)CCN1c1cccc2c1cnn2-c1ccccc1F (stereo not shown) [Example 71]
Response: 2340 nM

Prompt: Quick one: give measured IC50 for Cc1cncc(CN2CCN(c3cccc4c3cnn4-c3ccccc3F)C2=O)c1 [Example 228]
Response: 1090 nM

Prompt: Please list IC50 recorded for the compound Cc1ccccc1CNC(=O)CN1CCN(c2cccc3c2cnn3-c2ccccc2F)C1=O [Example 175]
Response: 2650 nM

Prompt: Output IC50 of O=C(CN1CCCN(c2cccc3c2cnn3-c2ccccc2F)C1=O)N1CC[C@H](F)C1 [Example 23]
Response: 1470 nM

Prompt: Give IC50 for O=C1N(c2cccnc2)CCN1c1cccc2c1cnn2-c1ccccc1F [Example 19]
Response: 2920 nM

Prompt: Give the reported IC50 for this compound. O=C1N(Cc2cnccn2)CCN1c1cccc2c1cnn2-c1ccccc1F [Example 35]
Response: 747 nM

Prompt: Determine from records and report IC50 for O=C1N(c2ccccn2)CCN1c1cccc2c1cnn2-c1ccccc1F [Example 130]
Response: 1850 nM

Prompt: Return IC50 (reported value) for this compound: O=C(CN1CCN(c2cccc3c2cnn3-c2ccccc2F)C1=O)N[C@@H]1CCC[C@H]1OCc1ccccc1 [Example 335]
Response: 1110 nM

Prompt: Read the entry O=C1N(CC(=O)N2[C@H]3CC[C@@H]2CC3)CCN1c1cccc2c1cnn2-c1ccccc1F [Example 212] and write its reported IC50.
Response: 1140 nM

Prompt: Give the reported value of IC50 for this record: O=C1N(Cc2cc(C3CC3)on2)CCN1c1cccc2c1cnn2-c1ccccc1F [Example 252]
Response: 1760 nM

Prompt: Look up IC50 of CC1(CN2CCN(c3cccc4c3cnn4-c3ccccc3F)C2=O)COC1 [Example 213] and report it.
Response: 3650 nM

Prompt: Indicate the recorded IC50 value for this compound: O=C(CN1CCN(c2cccc3c2cnn3-c2ccccc2F)C1=O)NCCC(F)(F)F [Example 343]
Response: 3060 nM

Prompt: Dear colleague, please send me the reported IC50 for CC(C)C[C@](C)(O)CN1CCN(c2cccc3c2cnn3-c2ccccc2F)C1=O [Example 168] when you can.
Response: 816 nM
